Experimental target: Stromelysin-1 (Homo sapiens)
Measurement protocol: Inhibition of human MMP3 catalytic domain at 50 uM after 1 hr by fluorescent substrate assay
Measured inhibition, listed per entry.
Write the value in % as a bare number.

What inhibition appears in the records for this molecule with Stromelysin-1 (Homo sapiens)? `O=C(NCc1ccc(-c2ccccc2)cc1)c1cc(=S)c(O)co1` 91

***
What inhibition appears in the records for this molecule with Stromelysin-1 (Homo sapiens)? `COc1ccc(CNC(=O)c2c(C)occ(O)c2=O)cc1` 18
